# System: sulfhydryl oxidase
# Assay text: Effect of metal ions and EDTA on sulfhydryl oxidase activity
# Type: biochemical, bovine
# Conditions used: EDTA-treated enzyme dialyzed against 1.0 mM solution of the metal ion; phosphate pH 7.0, 35°, 0.8 mM GSH
Property: Enzyme activity (μmol O2 consumed/min.)
Provide the reading as a plain figure in μmol O2 consumed/min..

| Compound | Enzyme activity (μmol O2 consumed/min.) |
| --- | --- |
| [Cl][Mn][Cl] [Manganese (II) chloride] | 0.085 |
| O=S(=O)([O-])[O-].[Cu+2] [Copper sulfate] | 0.109 |
| [Br][Mo][Br] [Molybdenum dibromide, molybdenum dibromide] | 0.008 |
| [Cl][Co][Cl] [Cobalt chloride] | 0.021 |

We now examine a further compound.
Give sulfhydryl oxidase Enzyme activity for O=S(=O)([O-])[O-].[Zn+2] [Zinc sulfate]
0.029
